test: detection-format interference in TR-FRET ratio – biochemical, artefact control for PPARgamma SRC-2 agonist project, primary screen (AID 1049); conditions: TR-FRET artefact counter-screen; at 8 µM; active compounds read high
Hit rate of the full screen: of about 200,000 compounds, about 780 (0.39%) were called active. This excerpt belongs to a sample that is enriched for actives.
property: TR-FRET ratio
The answer should be written as a number, with no unit following it.

Solved cases below.
| compound | TR-FRET ratio |
| --- | --- |
| CCN(C(=O)COc1cccnc1[N+](=O)[O-])C1CCS(=O)(=O)C1 (stereo not given) | 1550 |
| COc1cc(OC)cc(C(=O)Nc2ccc(S(=O)(=O)Nc3cc(C)on3)cc2)c1 | 1400 |
| CSc1ncccc1C(=O)OCc1ccc(Br)cc1 | 1680 |
| Cc1ccc(-c2nc(C)sc2CC(=O)O)cc1 | 1600 |
| COc1ccc(CSc2nc(N3CCOCC3)c3c(c2C#N)CC(C)(C)OC3)cc1 | 1500 |
| C/C(N)=C(/C#N)C(=O)COC(=O)c1cc(-c2ccccc2)nc2ccc(Br)cc12 | 1540 |
| O=C(O)Cc1sc(-c2ccccc2)nc1-c1cccs1 | 2400 |
| CC1(C)CC(=O)C/C(=N\NC(=O)c2cccs2)C1 | 1760 |
| CN1CCN(/N=C/c2ccc(C#N)cc2)CC1 | 1460 |
| CCOC(=O)c1sc(NC(=O)CSc2nnc(-c3ccco3)o2)c(C(=O)OCC)c1C | 1590 |

Moving on to the next compound.
GET /value?item= CCOC(=O)c1c(NC(=O)CNC2CCCc3ccccc32)sc(C(N)=O)c1C (stereo not given) &field=TR-FRET ratio returns 2030
